The values you see were collected from ChEMBL document CHEMBL3862012.

test: Cytotoxicity against human HOP92 cells assessed as growth inhibition at 10 uM after 48 hrs by SRB assay relative to control; assay type: functional; details: HOP-92, 48 h, read-out: GI
Listed molecules paired with reported inhibition of growth at 10 µM
Answer in %, number only, no unit symbol.

The reported value for COc1ccc(CN2c3ccccc3Oc3ccccc32)cc1F in terms of inhibition of growth at 10 µM is 33

The reported value for COc1ccc(CN2c3ccccc3Sc3ccccc32)c(C(F)(F)F)c1 in terms of inhibition of growth at 10 µM is 61

The reported value for COc1ccc(CN2c3ccccc3Oc3ccccc32)cc1O in terms of inhibition of growth at 10 µM is 67

Next:
The reported value for COc1ccc(CN2c3ccccc3Sc3ccccc32)cc1O in terms of inhibition of growth at 10 µM is 50

The reported value for COc1ccc(CN2c3ccccc3Sc3ccccc32)c(F)c1 in terms of inhibition of growth at 10 µM is 67

The reported value for COc1ccc(CN2c3ccccc3Sc3ccccc32)cc1F in terms of inhibition of growth at 10 µM is 50

The reported value for COc1ccc(CN2c3ccccc3CCc3ccccc32)cc1F in terms of inhibition of growth at 10 µM is 64
